The molecules listed here are annotated with their pEC50.
Biological target: CB1 receptor (Homo sapiens)
Sequence (P21554 whole entry): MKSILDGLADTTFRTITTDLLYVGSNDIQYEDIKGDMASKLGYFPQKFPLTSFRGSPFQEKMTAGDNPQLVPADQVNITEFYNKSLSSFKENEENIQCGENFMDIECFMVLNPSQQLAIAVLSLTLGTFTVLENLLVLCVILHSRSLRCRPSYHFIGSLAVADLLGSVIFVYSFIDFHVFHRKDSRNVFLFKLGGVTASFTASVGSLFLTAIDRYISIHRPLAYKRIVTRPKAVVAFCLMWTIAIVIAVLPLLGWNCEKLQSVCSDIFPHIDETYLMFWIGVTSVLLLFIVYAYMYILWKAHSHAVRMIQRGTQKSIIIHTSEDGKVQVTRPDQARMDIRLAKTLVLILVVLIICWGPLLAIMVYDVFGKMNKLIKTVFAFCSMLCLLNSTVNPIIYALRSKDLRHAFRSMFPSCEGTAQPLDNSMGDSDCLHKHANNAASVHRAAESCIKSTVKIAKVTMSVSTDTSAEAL
Experiment: cAMP Assay #2: Hit Hunter cAMP assay, Gi-coupled agonist activity, CB1
Type: cell-based
Parameters: host or cells: PathHunter cell lines
Conditions: Hit Hunter cAMP, 20 μM forskolin, control ligand CP55,940; read-out: CB1, EC50
Protocol: Compounds of the invention were assayed in the Hit Hunter® cAMP assay to determine Gi-coupled agonist activity on the CB1 and CB2 receptors, the results of which are provided in Table 5. […] Intermediate dilution of sample stocks was performed to generate 4× sample in assay buffer. […] Microplates were read following signal generation with a PerkinElmer Envision™ instrument for chemiluminescent signal detection. Compound activity was analyzed using CBIS data analysis suite (Chem Innovation, CA). […]
pEC50: −log10 of the molar value.
Measured endpoint: pEC50

Molecule: CCCCCCC(C)(C)c1cc(O)c2c(c1)OC(C)(C)[C@@H]1CC=C(C(=O)NC3CCCCC3)C[C@@H]21
Reported relation: <
Value observed: 5.52

Molecule: CCCCCCC(C)(C)c1cc(O)c2c(c1)OC(C)(C)[C@@H]1CC=C(C(=O)NOCCO)C[C@@H]21
Reported relation: =
Value observed: 8.20

Molecule: CCCCCCC(C)(C)c1cc(O)c2c(c1)OC(C)(C)[C@@H]1CC=C(C(=O)NC[C@H](O)CO)C[C@@H]21
Reported relation: =
Value observed: 6.60

Molecule: CCCCCCC(C)(C)c1cc(O)c2c(c1)OC(C)(C)[C@@H]1CC=C(C(=O)NC[C@@H](O)CO)C[C@@H]21
Reported relation: =
Value observed: 6.76

Molecule: CCCCCCC(C)(C)c1cc(O)c2c(c1)OC(C)(C)[C@@H]1CC=C(C(=O)NC(CO)CO)C[C@@H]21
Reported relation: =
Value observed: 6.44

Molecule: CCCCCCC(C)(C)c1cc(O)c2c(c1)OC(C)(C)[C@@H]1CC=C(C(=O)NCCCO)C[C@@H]21
Reported relation: =
Value observed: 7.18

Molecule: CCCCCCC(C)(C)c1cc(O)c2c(c1)OC(C)(C)[C@@H]1CC=C(C(=O)NC(C)(C)CCO)C[C@@H]21
Reported relation: =
Value observed: 6.35

Molecule: CCCCCCC(C)(C)c1cc(O)c2c(c1)OC(C)(C)[C@@H]1CC=C(C(=O)NCC(O)CO)C[C@@H]21 (stereo partly drawn)
Reported relation: =
Value observed: 6.65

Molecule: CCCCCCC(C)(C)c1cc(O)c2c(c1)OC(C)(C)[C@@H]1CC=C(C(=O)N[C@H](C)CCO)C[C@@H]21
Reported relation: =
Value observed: 6.33

###

The compounds listed here are annotated with their Ki.
molecular target: CB2 receptor (Homo sapiens, UniProt P34972); test: CB2 competitive radioligand binding assay ([3H] WIN-55,212-2); design: expressed in transfected cells; host or cells: CHO-K1 cells
Sequence (P34972 whole entry): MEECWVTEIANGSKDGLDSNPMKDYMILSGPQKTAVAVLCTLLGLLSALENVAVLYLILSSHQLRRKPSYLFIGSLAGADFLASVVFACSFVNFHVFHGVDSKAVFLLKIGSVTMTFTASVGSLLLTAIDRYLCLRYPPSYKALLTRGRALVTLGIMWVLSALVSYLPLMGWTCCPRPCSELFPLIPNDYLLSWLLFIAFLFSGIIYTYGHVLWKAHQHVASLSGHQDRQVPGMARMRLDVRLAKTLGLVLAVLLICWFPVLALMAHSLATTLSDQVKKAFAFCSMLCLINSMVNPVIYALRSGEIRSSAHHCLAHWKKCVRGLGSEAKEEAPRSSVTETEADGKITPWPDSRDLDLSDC
Measured endpoint: Ki (nM)

Substance smiles: CCCCCCC(C)(C)c1cc(O)c2c(c1)OC(C)(C)[C@@H]1CC=C(C(=O)OC)C[C@@H]21
Reported relation: =
Value observed: 32

Substance smiles: CC(C)(c1ccccc1)c1cc(O)c2c(c1)OC(C)(C)[C@@H]1CC=C(C(=O)O)C[C@@H]21
Reported relation: >
Value observed: 3000

Substance smiles: CCCCCCC(C)(C)c1cc(O)c2c(c1)OC(C)(C)[C@@H]1CC=C(C(=O)NO)C[C@@H]21
Reported relation: =
Value observed: 24.1

Substance smiles: CCCCCCC(C)(C)c1c(Cl)c(O)c2c(c1Cl)OC(C)(C)[C@@H]1CC=C(C(=O)O)C[C@@H]21
Reported relation: >
Value observed: 3000
